src = patent US20240400560A1

# test-target: SARS-CoV-2 3CL protease (Severe acute respiratory syndrome coronavirus 2)
# assay-procedure: Inhibitory activity test against SARS-CoV-2 3CL proteases
# Format: biochemical
# condition-set: read-out: IC50 (50% SARS-CoV-2 3CL protease inhibitory concentration)
pIC50: −log10 of the molar value.
reported-metric: pIC50

Provide reported pIC50 for each item, in the same order as listed.
1. Cn1cnc(Cn2c(=O)c3ccc(-c4cc5c(cc4Cl)NC(=O)C5)c(F)c3n(Cc3cc(F)c(F)c(F)c3)c2=O)n1
2. Cc1cncc(-n2c(=O)c3c(Cl)cc(-c4cc5cn[nH]c5cc4Cl)cc3n(Cc3ccc(F)c(C#N)c3)c2=O)c1
3. COc1nc(N2CCC(C)(O)C2)cc2c1c(=O)n(-c1cncc(Cl)c1)c(=O)n2-c1ccc(F)c(Cl)c1 (stereo not drawn)

Outgoing:
1: 7.46; 2: > 7.00; 3: > 7.00
